Examples of binders with documented Kd follow.
target: T1, monomeric hActRIIB (human, UniProt Q13705 19-134, limits assumed); experiment: SPR (Biacore), 37 C, antibody captured on anti-hFc IgG chip, monomeric ActRIIB injected, KD = kd/ka
T1 construct: also called ActRIIB MONOMER; ActRIIB monomer
T1 sequence (Q13705 19-134 limits assumed): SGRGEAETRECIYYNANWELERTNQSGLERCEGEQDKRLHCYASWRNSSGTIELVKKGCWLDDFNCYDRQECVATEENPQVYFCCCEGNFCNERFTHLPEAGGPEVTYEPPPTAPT
Form entry: value (nM) — number only.

binder	property	quantitative-readout
L01 (antibody, human IgG1, kappa, V domains shown, Naive human IgG; also called L01 antibody; mAB L01) VH: QLQLQESGPGLVKPSETLSLTCTVSGGSISSSSYYWGWIRQPPGKGLEWIGSISYSGSTYYNPSLKSRVTISVDTSKNQFSLKLSSVTAADTAVYYCARDSLRYGMDVWGQGTTVTVSS VL: EIVMTQSPATLSVSPGERATLSCRASQSVSSNLAWYQQKPGQAPRLLIYGASTRATGIPARFSGSGSGTEFTLTISSLQSEDFAVYYCQVYNVWPRTFGGGTKVEIKR	Kd	19.5
J01 (antibody, V domains shown, also called J01 antibody; mAB J01) VH: QVQLVQSGAEVKKPGASVKVSCKASGYTFTSYRMHWVRQAPGQGLEWMGFIVPSGGSTSYAQKFQGRVTMTRDTSTSTVYMELSSLRSEDTAVYYCARVSRYAPEPMDVWGQGTTVTVSS VL: DIQMTQSPSSVSASVGDRVTITCRASQGISRWLAWYQQKPGKAPKLLIYAASSLQSGVPSRFSGSGSGTDFTLTISSLQPEDFATYYCQQAFSHPWTFGGGTKVEIK	Kd	0.209
M01 (antibody, V domains shown, Optimized human IgG; It was captured through its Fc on an anti-hFc IgG chip; also called M01 antibody; mAB M01) VH: EVQLLESGGGLVQPGGSLRLSCAASGFTFGSYGMTWVRQAPGKGLEWVSVISGSGGGTYYADSVKGRFTISRDNSKNTLYLQMNSLRAEDTAVYYCAKGPRVVGMDVWGQGTTVTVSS VL: DIQMTQSPSSVSASVGDRVTITCRASQGISSWLAWYQQKPGKAPKLLIYAASSLQSGVPSRFSGSGSGTDYTLTISSLQPEDFATYYCQQVFSYPLTFGGGTKVEIK	Kd	0.0755

Let's switch to this binder now.
[ask] # query: Kd of entry N01 (antibody, human IgG1, kappa, V domains shown, also called N01 antibody; mAB N01) VH: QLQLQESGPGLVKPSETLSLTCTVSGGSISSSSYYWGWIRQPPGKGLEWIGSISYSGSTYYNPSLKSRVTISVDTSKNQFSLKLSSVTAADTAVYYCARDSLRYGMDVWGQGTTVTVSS VL: DIQMTQSPSTLSASVGDRVTITCRASQSIGSWLAWYQQKPGKAPKLLIYKASSLESGVPSRFSGSGSGTEFTLTISSLQPDDFATYYCQVYGSYSPRTFGGGTKVEIKR
[reply] 18.5
